The following sequences are shown together with reported furin cleavage Z-score values.
# system: furin, P09958;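 also: purified furin at 1:10 enzyme:substrate in 50 mM HEPES pH 7.5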
# Sequence (P09958 whole entry): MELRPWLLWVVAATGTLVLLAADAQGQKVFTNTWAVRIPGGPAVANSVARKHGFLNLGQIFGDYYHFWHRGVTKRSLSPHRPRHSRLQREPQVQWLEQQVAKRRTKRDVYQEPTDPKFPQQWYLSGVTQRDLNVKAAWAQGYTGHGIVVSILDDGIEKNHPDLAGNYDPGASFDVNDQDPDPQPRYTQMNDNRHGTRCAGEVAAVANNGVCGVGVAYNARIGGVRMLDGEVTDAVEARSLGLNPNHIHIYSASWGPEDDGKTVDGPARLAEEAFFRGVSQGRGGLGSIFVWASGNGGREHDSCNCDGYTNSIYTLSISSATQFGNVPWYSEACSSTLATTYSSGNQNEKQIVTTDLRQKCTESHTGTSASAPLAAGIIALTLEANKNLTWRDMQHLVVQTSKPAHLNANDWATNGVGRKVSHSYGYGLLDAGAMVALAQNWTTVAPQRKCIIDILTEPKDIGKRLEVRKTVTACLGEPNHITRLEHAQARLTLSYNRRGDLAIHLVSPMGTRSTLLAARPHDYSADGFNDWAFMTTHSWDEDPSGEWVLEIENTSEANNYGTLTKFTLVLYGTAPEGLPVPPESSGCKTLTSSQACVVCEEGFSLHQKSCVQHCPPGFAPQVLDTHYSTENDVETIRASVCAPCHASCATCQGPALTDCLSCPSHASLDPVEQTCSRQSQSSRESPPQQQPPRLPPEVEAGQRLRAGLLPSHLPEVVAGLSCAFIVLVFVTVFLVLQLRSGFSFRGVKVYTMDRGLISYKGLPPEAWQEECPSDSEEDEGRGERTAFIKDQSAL
# procedureText: furin cleavage Z-score vs untreated control; higher = more cleavage, active = 3.5 or more, inactive = 1 or less, 8 variable residues between constant flanks
# testContext: 15 min
The list shows a part of the results. How many sequences the whole screen found active is unknown.
Respond numerically, and do not add a unit to the figure.

Before answering, review these 3 worked examples.
# orderedResidues, furin cleavage Z-score
measured = [
    ("CAGVLTTSCGAGNASASA [HC1512]", 0.491),
    ("CAKQSGENLPAGNASASA [HC949]", -0.215),
    ("CASSTSGITGAGNASASA [HC1338]", -0.0853),
]

Could you now consider this next sequence?
Give the value of furin cleavage Z-score reported for the following: CATCMSADLEAGNASASA [HC984]
0.775

Numbers sourced from the supplement of paper PMC3545927.
